// data source = patent US20070293484A1

Target Under Test: PDGFR (Homo sapiens, UniProt P09619)
Construct: SUGEN, Inc; host or cells: NIH 3T3 cell lysate; receptor captured on plate with monoclonal anti-PDGFR antibody 28D4C10
Sequence (P09619 33-1106, species assumed): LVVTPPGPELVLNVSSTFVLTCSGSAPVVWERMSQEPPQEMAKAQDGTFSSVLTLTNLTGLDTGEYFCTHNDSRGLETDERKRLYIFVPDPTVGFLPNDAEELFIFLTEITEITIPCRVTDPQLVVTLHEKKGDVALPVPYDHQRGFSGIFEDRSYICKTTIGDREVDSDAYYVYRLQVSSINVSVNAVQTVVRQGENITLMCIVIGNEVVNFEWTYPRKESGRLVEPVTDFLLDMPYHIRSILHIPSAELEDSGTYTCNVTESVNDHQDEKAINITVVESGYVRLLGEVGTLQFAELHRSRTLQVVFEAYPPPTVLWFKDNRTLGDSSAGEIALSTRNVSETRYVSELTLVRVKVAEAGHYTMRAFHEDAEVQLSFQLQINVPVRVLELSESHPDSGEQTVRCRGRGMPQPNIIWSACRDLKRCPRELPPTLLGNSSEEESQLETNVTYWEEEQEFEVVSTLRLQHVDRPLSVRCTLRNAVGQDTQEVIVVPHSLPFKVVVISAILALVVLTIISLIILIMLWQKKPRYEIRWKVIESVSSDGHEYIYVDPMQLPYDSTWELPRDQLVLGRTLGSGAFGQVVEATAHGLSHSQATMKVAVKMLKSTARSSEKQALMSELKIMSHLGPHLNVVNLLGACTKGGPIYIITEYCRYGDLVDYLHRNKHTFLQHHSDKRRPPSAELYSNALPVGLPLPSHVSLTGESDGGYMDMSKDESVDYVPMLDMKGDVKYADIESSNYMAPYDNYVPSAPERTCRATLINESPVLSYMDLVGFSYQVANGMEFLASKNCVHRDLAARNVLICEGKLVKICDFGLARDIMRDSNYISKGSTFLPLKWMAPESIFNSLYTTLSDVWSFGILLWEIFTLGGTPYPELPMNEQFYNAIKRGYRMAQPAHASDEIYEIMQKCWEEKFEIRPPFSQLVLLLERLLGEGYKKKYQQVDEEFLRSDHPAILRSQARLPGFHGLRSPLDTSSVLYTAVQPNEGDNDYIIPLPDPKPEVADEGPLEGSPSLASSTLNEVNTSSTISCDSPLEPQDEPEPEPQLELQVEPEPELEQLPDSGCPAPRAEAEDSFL
Test: PDGFR bioassay (ELISA, in vitro kinase activity)
Format: biochemical
Assay Setup: PDGFR-β expressing NIH 3T3 cell lysate; read-out: IC50 (μM) PDGF-R
Readout Label: IC50

Some compounds with recorded IC50:
# Test Smiles, Target Under Test, Readout Label, Obs Value
measured = [
    ("CCN(CC)CC(=O)Nc1cccc(Nc2cnc(-c3ccsc3)cn2)c1", "PDGFR (Homo sapiens, UniProt P09619)", "IC50", "> 20 µM"),
    ("CCN(CC)CCNCC(=O)Nc1cccc(Nc2ncc(-c3ccsc3)cn2)c1", "PDGFR (Homo sapiens, UniProt P09619)", "IC50", "0.23 µM"),
]

Prompt: Look up IC50: "COc1ccc(NC(=O)Nc2ncc(-c3ccsc3)cn2)cc1"
Completion: > 20 µM
